Every entry's value here was drawn from patent US6596772B1.

Biological target: PTP 1B (Homo sapiens)
Construct: made in house; host or cells: Sf-9 insect cells (pFastBac-G2T)
Sequence (P18031 whole entry): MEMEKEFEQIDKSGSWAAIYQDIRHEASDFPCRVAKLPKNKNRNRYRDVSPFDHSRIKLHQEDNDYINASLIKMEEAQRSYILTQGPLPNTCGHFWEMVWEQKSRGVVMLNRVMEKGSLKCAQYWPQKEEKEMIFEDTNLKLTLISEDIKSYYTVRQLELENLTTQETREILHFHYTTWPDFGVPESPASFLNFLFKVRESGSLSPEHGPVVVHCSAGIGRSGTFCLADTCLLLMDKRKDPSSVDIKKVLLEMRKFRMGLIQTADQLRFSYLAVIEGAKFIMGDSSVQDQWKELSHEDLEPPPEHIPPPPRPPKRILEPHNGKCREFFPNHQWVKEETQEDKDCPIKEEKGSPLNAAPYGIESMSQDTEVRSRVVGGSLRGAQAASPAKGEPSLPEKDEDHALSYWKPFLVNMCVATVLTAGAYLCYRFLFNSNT
Experiment: PTP IC50 assay, pNPP or FDP as substrate
Assay type: biochemical
Details: pNPP or FDP as substrate, 25° C.; read-out: PTP IC50 1B
property name: IC50 (µM)

INSERT INTO assay_data (compound, censor_symbol, readout_number) VALUES
  ('O=S(=O)(c1ccc(COc2ccc(S(=O)(=O)C(F)(F)F)cc2)cc1)C(F)(F)F', '=', 55.7),
  ('O=S(=O)(Nc1ccc(Oc2cccc(Oc3ccc(NS(=O)(=O)C(F)(F)F)cc3)c2)cc1)C(F)(F)F', '=', 7.7),
  ('O=C(Cc1cccc(CC(=O)Nc2cccc(S(=O)(=O)C(F)(F)F)c2)c1)Nc1cccc(S(=O)(=O)C(F)(F)F)c1', '=', 35.3),
  ('O=C(O)c1ccc(Oc2cccc(Oc3ccc(S(=O)(=O)C(F)(F)F)cc3)c2)cc1', '=', 16.4),
  ('CCOC(=O)c1cc(Oc2ccc(S(=O)(=O)C(F)(F)F)cc2[N+](=O)[O-])c(C(=O)OCC)cc1O', '>', 100),
  ('CN(C)CC(COc1ccc(S(=O)(=O)C(F)(F)F)cc1[N+](=O)[O-])Oc1ccc(S(=O)(=O)C(F)(F)F)cc1[N+](=O)[O-] (stereo not drawn)', '>', 100),
  ('CC(C)(COc1ccc(NS(=O)(=O)C(F)(F)F)cc1)COc1ccc(NS(=O)(=O)C(F)(F)F)cc1', '=', 44.6),
  ('O=C(O)c1ccc(Oc2cccc(Oc3ccc(S(=O)(=O)C(F)(F)F)cc3[N+](=O)[O-])c2)cc1', '=', 15.7),
  ('Cc1cc(NS(=O)(=O)C(F)(F)F)ccc1CCc1ccc(NS(=O)(=O)C(F)(F)F)cc1C', '=', 35),
  ('O=C(Cc1ccccc1CC(=O)Nc1cccc(S(=O)(=O)C(F)(F)F)c1)Nc1cccc(S(=O)(=O)C(F)(F)F)c1', '=', 43.3),
  ('O=C(O)c1cc(Oc2ccc(S(=O)(=O)C(F)(F)F)cc2)cc(Oc2ccc(S(=O)(=O)C(F)(F)F)cc2)c1', '=', 6.2),
  ('O=C(O)Cc1ccc(CC(=O)Nc2cccc(S(=O)(=O)C(F)(F)F)c2)cc1', '=', 35.4),
  ('O=[N+]([O-])c1cc(S(=O)(=O)C(F)(F)F)ccc1OC1CCC(Oc2ccc(S(=O)(=O)C(F)(F)F)cc2[N+](=O)[O-])C1 (mixture of isomers)', '>', 100),
  ('CC(C)(c1ccc(NS(=O)(=O)C(F)(F)F)cc1)c1ccc(C(C)(C)c2ccc(NS(=O)(=O)C(F)(F)F)cc2)cc1', '=', 2.5),
  ('O=C(O)Cc1cccc(CC(=O)Nc2cccc(S(=O)(=O)C(F)(F)F)c2)c1', '=', 27.6),
  ('CCOC(=O)COc1ccc(S(=O)(=O)c2ccc(Oc3ccc(S(=O)(=O)C(F)(F)F)cc3[N+](=O)[O-])cc2)cc1', '>', 100),
  ('O=[N+]([O-])c1cc(S(=O)(=O)C(F)(F)F)ccc1Oc1cc(CN2CCOCC2)c(Oc2ccc(S(=O)(=O)C(F)(F)F)cc2[N+](=O)[O-])cc1CN1CCOCC1', '=', 11.6),
  ('CCNc1ccc(S(=O)(=O)C(F)(F)F)cc1NC(=O)Cc1ccc(S(C)(=O)=O)cc1', '=', 16.4),
  ('CCOC(=O)COc1ccc(S(=O)(=O)c2ccc(Oc3ccc(S(=O)(=O)C(F)(F)F)cc3)cc2)cc1', '=', 42.5),
  ('O=S(=O)(Nc1ccc(Oc2ccc(Oc3ccc(NS(=O)(=O)C(F)(F)F)cc3)cc2)cc1)C(F)(F)F', '=', 10.6),
  ('COC(=O)c1cc(Oc2ccc(S(=O)(=O)C(F)(F)F)cc2)cc(Oc2ccc(S(=O)(=O)C(F)(F)F)cc2)c1', '>', 100),
  ('O=S(=O)(Nc1ccc(OCCCOc2ccc(NS(=O)(=O)C(F)(F)F)cc2)cc1)C(F)(F)F', '=', 78.9),
  ('COC(=O)Cc1cc(Oc2ccc(S(=O)(=O)C(F)(F)F)cc2[N+](=O)[O-])cc(Oc2ccc(S(=O)(=O)C(F)(F)F)cc2[N+](=O)[O-])c1', '>', 100),
  ('O=C(NCc1ccc(S(=O)(=O)C(F)(F)F)cc1)c1ccccc1', '>', 100);
